Cited source for all entries: patent EP0119449A1

target: Cyclooxygenase; assay: Enzyme assay, inhibition of cyclooxygenase (method closely based on Borgeat et al); format: biochemical
Counter-ions that a name gives are not always drawn.
value-type: IC50

Give me measured IC50, please, for this compound: C#CCNC1=NN(c2cccc(SC)c2)CC1 [Example 7, hydrochloride]
> 1 µM

Give me measured IC50, please, for this compound: CSc1cccc(N2CCC(N)=N2)c1 [Example 1]
4.7 µM

Give me measured IC50, please, for this compound: CNC1=NN(c2cccc(SC)c2)CC1 [Example 3, hydrobromide]
10 µM
